Attribution: paper PMC9482650

Target: T1, DFNB31_2, Q9P202
T1 sequence (Q9P202 274-371, limits assumed, looked up): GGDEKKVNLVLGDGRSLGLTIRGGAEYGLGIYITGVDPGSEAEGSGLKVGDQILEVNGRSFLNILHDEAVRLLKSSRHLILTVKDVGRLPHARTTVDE
Experiment: holdup assay
Parameters: key: below the threshold = too weak to quantify, mostly under pKd 3.1 to 4
Conditions: plain residues with an end cap or a label only (N-terminal biotin on a linker: ado-ado)
measurement.kind: pKd

Known pKd results, listed for orientation:
binder: TISFTQTSQF [SLC1A1, P43005]
pKd: below the threshold

binder: DFLSTFHIRI [CIB2, O75838]
pKd: below the threshold

binder: AEASVACSLC [PTGIR, P43119]
pKd: below the threshold

binder: DDASLPVSDV [PLEKHA1, Q9HB21]
pKd: below the threshold

binder: AQRARSPSDV [GPR12, P47775]
pKd: below the threshold

// each binder listed below needs its pKd
1. TGLWKHETTV [ADGRA3, Q8IWK6]
2. TRKRSGEAAV [PFKM, P08237]
3. LPAVCYDIDI [PTTG2, Q9NZH5]

Given back:
1. below the threshold
2. below the threshold
3. below the threshold
